Molecular target: T1, human B-cell maturation antigen (BCMA) on cells (human, UniProt Q02223 1-184)
T1 construct: Recombinant on HEK293 or K562 cells, or endogenous on cell lines (H929, RPMI 8226, OPM2, MM1S, Daudi); also called hBCMA; huBCMA
T1 chain: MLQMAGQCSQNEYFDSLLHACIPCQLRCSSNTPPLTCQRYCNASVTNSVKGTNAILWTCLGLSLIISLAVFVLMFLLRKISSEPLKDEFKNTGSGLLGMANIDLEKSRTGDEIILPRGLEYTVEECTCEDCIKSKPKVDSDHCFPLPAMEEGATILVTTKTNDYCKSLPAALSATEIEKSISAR
Experiment: flow cytometry on BCMA-expressing HEK293 cells vs control cells, crude lysate or bacterial supernatant; clone listed in Table E2
ENDPOINT_NAME: binding result

BINDER	EXPERIMENTAL_RESULT
BCMA-18 scFv (scFv) scFv: EVQLLESGGGLVQPGGSLRLSCAASGFTFSSYWMSWHRQAPGKGPEWVAHINQDGSEKYYVDSVKGRFTISRDNAESSLYLQMNSLRAEDTAVYYCARWLAVTNWGQGTLVTVSSGGGGSGGGGSGGGGSQSVLTQPPSASGTPGQRVTISCSGSGSNIGSNDVSWYQQIPGTAPKLLIYWNDQRPSGVPDRFSGSKSGTSASLAISGLRSEDEADYYCAAWDDSLNGWVFGGGTKLTVL	binds
BCMA-8 scFv (scFv) scFv: QVQLVQSGGGLVQPGRSLRLSCTASGFTFGDYAMSWFRQAPGKGLEWVGFIRSKAYGGTTEYAASVKGRFTISRDDSKSIAYLQMNSLKTEDTAVYYCAAWSAPTDYWGQGTLVTVSSGGGGSGGGGSGGGGSDIVMTQSPDSLAVSLGERATINCKSSQSVLYSSNNKNYLAWYQQKPGQPPKLLIYWASTRESGVPDRFSGSGSGTDFTLTISSLQAEDVAVYYCQQYYSTPYTFGQGTKLEIK	binds
BCMA-22 scFv (scFv) scFv: EVQLVESGGGLVKPGGSLRLSCAASGFTFSDYYMSWIRQAPGKGLEWVSYISSSGSTIYYADSVKGRFTISRDNAKNSLYLQMNSLRAEDTAVYYCAKVDGDYTEDYWGQGTLVTVSSGGGGSGGGGSGGGGSQSALTQPASVSGSPGQSITISCTGSSSDVGKYNLVSWYQQPPGKAPKLIIYDVNKRPSGVSNRFSGSKSGNTATLTISGLQGDDEADYYCCSYGGSRSYVFGTGTKVTVL	binds
